The measurements presented in this section are drawn from the supplement of paper PMC10883282.

Collected relative viability values appear next to each entry.
# System: RD
# protocolText: relative viability vs DMSO control (72 h) (fraction); higher = more viable cells
# measurementSetup: 3.333 µM
Reply with the value as a number alone.

CNC(=O)c1cc(Oc2ccc(NC(=O)Nc3ccc(Cl)c(C(F)(F)F)c3)cc2)ccn1    0.9
Cc1c(F)cc(C(=O)NC2CC2)cc1-c1ccc(C(=O)NCC(C)(C)C)cn1    1.02
COc1cc2nccc(Oc3ccc(NC(=O)C4(C(=O)Nc5ccc(F)cc5)CC4)cc3)c2cc1OC [Cabozantinib]    0.864

For the compound NC(=O)c1cccc2cn(-c3ccc([C@@H]4CCCNC4)cc3)nc12 , what relative viability is on record? 0.899

* * *

Collected relative viability values appear next to each entry.
# Tested on: SW1353
# protocolText: relative viability vs DMSO control (72 h) (fraction); higher = more viable cells
# measurementSetup: 0.01372 µM
Reply with the value as a number alone.

NC(=O)c1cnc2[nH]ccc2c1N[C@@H]1[C@@H]2CC3C[C@H]1C[C@@](O)(C3)C2    1.04

For the compound CC[C@@H]1C(=O)N(C)c2cnc(Nc3ccc(C(=O)N[C@H]4CC[C@H](N5CCN(CC6CC6)CC5)CC4)cc3OC)nc2N1C(C)C , what relative viability is on record? 0.958

C=CC(=O)Nc1cc(Nc2nccc(-c3cn(C)c4ccccc34)n2)c(OC)cc1N(C)CCN(C)C , same question. 0.97

C[C@H]1Oc2cc(cnc2N)-c2c(nn(C)c2C#N)CN(C)C(=O)c2ccc(F)cc21 , same question. 0.985

* * *

# System: HS729
# protocolText: relative viability vs DMSO control (72 h) (fraction); higher = more viable cells
# measurementSetup: 0.01372 µM
readoutKind: relative viability
Reply with the value as a number alone.

CCCCCCCCCCCCCCCCCCOP(=O)([O-])OC1CC[N+](C)(C)CC1    0.924
COc1cc(Nc2c(C#N)cnc3cc(OCCCN4CCN(C)CC4)c(OC)cc23)c(Cl)cc1Cl    1.07
COc1cc2nccc(Oc3ccc(NC(=O)C4(C(=O)Nc5ccc(F)cc5)CC4)cc3)c2cc1OC [Cabozantinib]    0.966
COc1cc(OC)cc(N(CCNC(C)C)c2ccc3ncc(-c4cnn(C)c4)nc3c2)c1    0.74
CN(C)C[C@@H]1CCn2cc(c3ccccc32)C2=C(C(=O)NC2=O)c2cn(c3ccccc23)CCO1    0.895

For the compound C=CC(=O)Nc1cccc(Nc2nc(Nc3ccc(N4CCN(C(C)=O)CC4)cc3OC)ncc2C(F)(F)F)c1 , what relative viability is on record? 0.902

CCN(c1cc(-c2ccc(CN3CCOCC3)cc2)cc(C(=O)NCc2c(C)cc(C)[nH]c2=O)c1C)C1CCOCC1 , same question. 1.04

COc1cc2ncnc(Nc3ccc(F)c(Cl)c3)c2cc1NC(=O)/C=C/CN1CCCCC1 , same question. 1.01

* * *

Collected relative viability values appear next to each entry.
# Tested on: SW684
# protocolText: relative viability vs DMSO control (72 h) (fraction); higher = more viable cells
# measurementSetup: 10 µM
Reply with the value as a number alone.

Below, each entry is followed by its recorded relative viability result.
CC[C@@H]1C(=O)N(C)c2cnc(Nc3ccc(C(=O)N[C@H]4CC[C@H](N5CCN(CC6CC6)CC5)CC4)cc3OC)nc2N1C(C)C    0.0835
CCCS(=O)(=O)N[C@H]1C[C@@H](N(C)c2ncnc3[nH]ccc23)C1    1.08
C1=N/C2=N/c3ccc(OCCN4CCCC4)c(c3)COC/C=C/COCc3cccc(c3)C(=C1)N2    0.0544

For the molecule CCN(CCCOc1ccc2c(Nc3cc(CC(=O)Nc4cccc(F)c4)[nH]n3)ncnc2c1)CCOP(=O)(O)O , what relative viability is on record? 0.816

CN1CCN(CCOc2cc(OC3CCOCC3)c3c(Nc4c(Cl)ccc5c4OCO5)ncnc3c2)CC1 , same question. 1.08
